- Protocol description: chemical genetic growth profiling, strain panel (AID 1159580);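 also: tested at 20 µM; growth read once vehicle control cultures reached saturation at 30 °C; 1 = growth at the plate median or of vehicle wells; lower values mean less growth of the strain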
- Test conditions: S. cerevisiae deletion strains, growth OD, locus YLL026W
Screen size: about 5,500 compounds; about 2,000 (36%) were called active. About 18% were inconclusive and are not listed. Rule as the data show it: active = normalized growth mostly below about 0.91 (no sharp cut-off); inconclusive = no clear call, values can overlap the other calls; inactive = mostly above about 0.92. The list shows a part of the results.
Pick one: y = active, n = inactive

CCCCN(CCCC)CCCOC(=O)c1ccc(N)cc1; n
Cc1cccc(Nc2ccccc2C(=O)O)c1C; n
CCOC(=O)Nc1nc2ccccc2[nH]1; n
C=C1C(=O)O[C@@H]2C3O[C@]3(C)CC/C=C(\C)CC[C@@H]12 (some centres undefined); n
Cc1c(Cl)cccc1Nc1ccccc1C(=O)O; y

Please examine the following record next.
Inquiry: Returns: the outcome recorded for CCCCNc1ccc(C(=O)OCCN(C)C)cc1 in this assay.
Reply text: n

* * *

- Protocol description: chemical genetic growth profiling, strain panel (AID 1159580)
- Test conditions: S. cerevisiae deletion strains, growth OD, locus YOL012C, strain htz1
Among all 5,500 compounds or so, about 2,000 (36%) were called active. Roughly 18% stayed inconclusive and do not appear here. This is one part of the list.
Please assign No whenever normalized growth is at or above 1, and Yes whenever it is below.

Known results for compounds:
C=CCCCCCCCCCCCC(O)CC(O)COC(C)=O (stereo not given) (tested in a mixture with another compound); No
COc1ccc(CCN2CCC(Nc3nc4ccccc4n3Cc3ccc(F)cc3)CC2)cc1; Yes
CC(=O)OC1CCC2(C)C(=CC=C3C2CCC2(C)C3CCC2C(C)/C=C/C(C)C(C)C)C1(C)C (stereo not given); No
Cc1cc(NC(=O)C2=C(O)c3ccccc3S(=O)(=O)N2C)no1; No

Please examine the following record next.
Inquiry: Does CC(C)C(C)/C=C/C(C)C1CCC2C3=CC=C4CC(O)CCC4(C)C3CCC21C (stereo not given) have normalized growth strictly under 1?
Reply text: No

* * *

- Protocol description: chemical genetic growth profiling, strain panel (AID 1159580)
- Test conditions: S. cerevisiae deletion strains, growth OD, locus YOR270C, strain vph1, hits give low values
In all, about 5,500 compounds went through this assay and about 2,000 (36%) were called active. About 18% were inconclusive and are not listed. Some of the results follow.
Please assign not fulfilled whenever normalized growth is at or above 1, and fulfilled whenever it is below.

Known results for compounds:
CC1=CC2C(CC1=O)C(C)=CCC2C(C)C (centres undefined); fulfilled
CO/N=C(\C(=O)N[C@@H]1C(=O)N2C(C(=O)O)=C(CSc3nc(=O)c(O)nn3C)CS[C@H]12)c1csc(N)n1; fulfilled
CO/N=C(\C(=O)NC1C(=O)N2C(C(=O)O)=C(COC(N)=O)CSC12)c1ccco1 (centres undefined); fulfilled
CC(C)NNC(=O)c1ccncc1; not fulfilled
CC(C)NCC(O)COc1cccc2ccccc12 (centres undefined); not fulfilled
Clc1cccc(Cl)c1NC1=NCCN1; fulfilled
Cc1ccc(C)c(OCCCC(C)(C)C(=O)O)c1; fulfilled
Cc1cccc(C)c1NC1=NCCCS1; not fulfilled

Please examine the following record next.
Inquiry: Does CCN(CC)C(=O)c1cccc(C)c1 have normalized growth strictly under 1?
Reply text: not fulfilled

* * *

- Protocol description: chemical genetic growth profiling, strain panel (AID 1159580)
- Test conditions: S. cerevisiae deletion strains, growth OD, locus YKR026C, strain gcn3, hits give low values
About 2,000 (36%) of roughly 5,500 compounds were called active. Not shown: some 18% with an inconclusive outcome. The list shows a part of the results.
Overview of recorded normalized growth for various molecules
Number only, no unit.

COC(=O)C[C@H]1C(C)(C)C(=O)[C@@H]2CC3=C(CC[C@]4(C)C3=CC(=O)O[C@H]4c3ccoc3)[C@@]1(C)C2=O; 0.975
C[C@@H]1C(=O)OC2[C@H](O)C34[C@@H]5OC(=O)[C@@]3(O[C@@H]3OC(=O)[C@H](O)[C@@]34[C@H](C(C)(C)C)[C@H]5O)[C@]21O (some centres undefined); 0.977
OC(Cn1cncn1)(Cn1cncn1)c1ccc(F)cc1F; 0.999
NS(=O)(=O)c1cc2c(cc1Cl)NC(C(Cl)Cl)NS2(=O)=O (centres undefined); 0.99
Cc1ccc(C)c(OCCCC(C)(C)C(=O)O)c1; 0.976
COc1c2ccoc2c(OC)c2oc(=O)ccc12; 0.99
COC(=O)[C@@H]1OC(=O)[C@H]2O[C@@]23[C@@]1(C)CCC1[C@@]2(C)CCC(=O)C(C)(C)C2C[C@@H](OC(C)=O)[C@]13C (some centres undefined); 0.966
Nc1nc2ncc(=O)[nH]c2c(=O)[nH]1; 0.977

Inquiry: Give the measured normalized growth of COc1cc2c(cc1OC)C1Cc3ccc(OC)c(OC)c3CN1CC2 (centres undefined) .
Reply text: 0.979

* * *

- Protocol description: chemical genetic growth profiling, strain panel (AID 1159580)
- Test conditions: S. cerevisiae deletion strains, growth OD, locus YML094W, strain GIM5, hits give low values
About 2,000 (36%) of roughly 5,500 compounds were called active. Not shown: some 18% with an inconclusive outcome. The list shows a part of the results.
Overview of recorded normalized growth for various compounds
Number only, no unit.

Worked cases, normalized growth given:
CC(C)(C)S(=O)(=O)/C(C#N)=C/N1CCCCC1; 1.02
O=C(CSCc1cccc2ccccc12)NNC(=S)Nc1ccccc1Cl; 0.857
Cc1cccc2c1N(C(=S)Nc1ccccc1Cl)CCC2; 0.712
COC(=O)c1sccc1NC(=O)C1CC1; 0.962
Nc1cc2c(cc1Cl)C(=O)NC2=O; 0.985

Inquiry: Give the measured normalized growth of CSC(=NC#N)N1CCN(c2ccc([N+](=O)[O-])cn2)CC1 .
Reply text: 0.966

Inquiry: Give the measured normalized growth of CC12NC(=O)NC1(C)NC(=O)N2 (stereo unspecified) .
Reply text: 1.04

Inquiry: Give the measured normalized growth of CN1c2ccccc2C(=O)NC1c1ccc([N+](=O)[O-])s1 (stereo unspecified) .
Reply text: 0.989

Inquiry: Give the measured normalized growth of CCCc1cnc(N2CCCN(C(=S)Nc3cccnc3)CC2)nc1 .
Reply text: 1.02

Inquiry: Give the measured normalized growth of CC(/C=N\O)=N/Nc1ccccc1 .
Reply text: 0.841

Inquiry: Give the measured normalized growth of Nc1ccc(N=Nc2ccc(S(N)(=O)=O)cc2)c2ccccc12 .
Reply text: 0.986

* * *

- Protocol description: chemical genetic growth profiling, strain panel (AID 1159580);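 also: tested at 20 µM; growth read once vehicle control cultures reached saturation at 30 °C; 1 = growth at the plate median or of vehicle wells; lower values mean less growth of the strain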
- Test conditions: S. cerevisiae deletion strains, growth OD, locus YHR200W, strain rpn10, hits give low values
The campaign covered roughly 5,500 compounds. About 2,000 (36%) were called active. Another 18% or so got no clear call; they are omitted. Some of the results follow.
Overview of recorded normalized growth for various compounds
Number only, no unit.

C=C1C(=O)OC2CC1C(OC(C)=O)C/C(C)=C/CC/C(C)=C/CC[C@]2(C)O (stereo partly specified); 1.02
CC(C)NNC(=O)c1ccncc1; 1.02
Cc1cccc(C)c1NC1=NCCCS1; 0.96
C=C1C(=O)O[C@@H]2C3O[C@]3(C)CC/C=C(\C)CC[C@@H]12 (stereo partly specified); 0.924
Clc1cccc(Cl)c1NC1=NCCN1; 1.02

Now look at this one.
Inquiry: Give the measured normalized growth of COc1cc2c(cc1OC)C1Cc3ccc(OC)c(OC)c3CN1CC2 (stereo unspecified) .
Reply text: 0.992

* * *

- Protocol description: chemical genetic growth profiling, strain panel (AID 1159580);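 also: tested at 20 µM; growth read once vehicle control cultures reached saturation at 30 °C; 1 = growth at the plate median or of vehicle wells; lower values mean less growth of the strain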
- Test conditions: S. cerevisiae deletion strains, growth OD, locus YLR262C, strain YPT6 (second series), hits give low values
Hit rate of the full screen: of about 5,500 compounds, about 2,000 (36%) were called active. Not shown: some 18% with an inconclusive outcome. This is one part of the list.
Please assign 0.0 whenever normalized growth is at or above 1, and 1.0 whenever it is below.

Inquiry: Does OCCOCCN1CCN(C2=Nc3ccccc3Sc3ccccc32)CC1 have normalized growth strictly under 1?
Reply text: 0.0

Inquiry: Does O=c1cc[nH]c(=S)[nH]1 have normalized growth strictly under 1?
Reply text: 0.0

Inquiry: Does Oc1ccc(Cl)cc1Cc1cc(Cl)ccc1O have normalized growth strictly under 1?
Reply text: 1.0

Inquiry: Does OCc1ccccc1O have normalized growth strictly under 1?
Reply text: 0.0

Inquiry: Does O=C1CC2OCC=C3CN4CC[C@]56c7ccccc7N1C5[C@H]2[C@H]3CC46 (some centres not stated) have normalized growth strictly under 1?
Reply text: 0.0

* * *

- Protocol description: chemical genetic growth profiling, strain panel (AID 1159580);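 also: tested at 20 µM; growth read once vehicle control cultures reached saturation at 30 °C; 1 = growth at the plate median or of vehicle wells; lower values mean less growth of the strain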
- Test conditions: S. cerevisiae deletion strains, growth OD, locus YOR316C, strain cot1
Hit rate of the full screen: of about 5,500 compounds, about 2,000 (36%) were called active. About 18% were inconclusive and are not listed. Rule as the data show it: active = normalized growth mostly below about 0.91 (no sharp cut-off); inconclusive = no clear call, values can overlap the other calls; inactive = mostly above about 0.92. This is one part of the list.
Pick one: active, inactive

Known results for compounds:
CC(C)[C@@H]1CC[C@@H](C)C[C@H]1O; inactive
Oc1ccc(Cl)cc1; inactive
CC1=CC2C(CC1=O)C(C)=CCC2C(C)C (stereo not drawn); inactive

Please examine the following record next.
Inquiry: Returns: the outcome recorded for Oc1ccc(Cl)cc1Cc1cc(Cl)ccc1O in this assay.
Reply text: active
